Test system: antibodies in sera from SARS patients (sera 1a, 1b, 2, 6, 37, 62, London, SARS-yellow, SARS-green)
Type: binding, human
reported property: Binding of serum SARS-green to linear peptides of protein X2
// no unit string in output, number only

ELLIQQWIQFMMSRR ... 0.6
SLTSLLKTHRMCKYT ... 0.5
LVVILRIGTQVLKTM ... 0.5
QIQLSLLKVTAFQHQ ... 0.2

// sample LHSSSLTSLLKTHRM , its Binding of serum SARS-green to linear peptides of protein X2 was 0.6

// sample TLVLKMLHSSSLTSL , its Binding of serum SARS-green to linear peptides of protein X2 was 0.4

// sample ALQELLIQQWIQFMM , its Binding of serum SARS-green to linear peptides of protein X2 was 0.7

// sample QTLVLKMLHSSSLTS , its Binding of serum SARS-green to linear peptides of protein X2 was 0.5

// sample TTVYHITVSQIQLSL , its Binding of serum SARS-green to linear peptides of protein X2 was 0.1

// sample AFQHQNSKKTTKLVV , its Binding of serum SARS-green to linear peptides of protein X2 was 0.2

// sample QQWIQFMMSRRRLLA , its Binding of serum SARS-green to linear peptides of protein X2 was 0.6
